assay: Hepatotoxicity against human HepG2 cells assessed as cell viability at 10 uM after 24 hrs by MTT assay relative to control; format: toxicity, cell-based; conditions: read-out: Activity
Recorded viability at 24 h, 10 µM values for a group of compounds are listed next.

- compound: "CC(O)CNC(=O)/C=C/c1ccccc1 (racemic)"
  readoutUnit: "%"
  viability at 24 h, 10 µM: 97.3
- compound: "CC(CO)NC(=O)/C=C/c1ccccc1 (racemic)"
  readoutUnit: "%"
  viability at 24 h, 10 µM: 97.1
- compound: "CC(C)C(CO)NC(=O)/C=C/c1ccccc1 (racemic)"
  readoutUnit: "%"
  viability at 24 h, 10 µM: 95.2
- compound: "CCC(O)CNC(=O)/C=C/c1ccccc1 (racemic)"
  readoutUnit: "%"
  viability at 24 h, 10 µM: 94.5
- compound: "COc1cccc2c1C(=O)c1c(O)c3c(c(O)c1C2=O)C[C@@](O)(C(=O)CO)C[C@@H]3O[C@H]1C[C@H](N)[C@H](O)[C@H](C)O1"
  readoutUnit: "%"
  viability at 24 h, 10 µM: 77.4
